molecular target: cGMP-dependent protein kinase 1 (Homo sapiens); further: in the data inactive means no Kd found up to 30 µM
Sequence (Q13976 whole entry): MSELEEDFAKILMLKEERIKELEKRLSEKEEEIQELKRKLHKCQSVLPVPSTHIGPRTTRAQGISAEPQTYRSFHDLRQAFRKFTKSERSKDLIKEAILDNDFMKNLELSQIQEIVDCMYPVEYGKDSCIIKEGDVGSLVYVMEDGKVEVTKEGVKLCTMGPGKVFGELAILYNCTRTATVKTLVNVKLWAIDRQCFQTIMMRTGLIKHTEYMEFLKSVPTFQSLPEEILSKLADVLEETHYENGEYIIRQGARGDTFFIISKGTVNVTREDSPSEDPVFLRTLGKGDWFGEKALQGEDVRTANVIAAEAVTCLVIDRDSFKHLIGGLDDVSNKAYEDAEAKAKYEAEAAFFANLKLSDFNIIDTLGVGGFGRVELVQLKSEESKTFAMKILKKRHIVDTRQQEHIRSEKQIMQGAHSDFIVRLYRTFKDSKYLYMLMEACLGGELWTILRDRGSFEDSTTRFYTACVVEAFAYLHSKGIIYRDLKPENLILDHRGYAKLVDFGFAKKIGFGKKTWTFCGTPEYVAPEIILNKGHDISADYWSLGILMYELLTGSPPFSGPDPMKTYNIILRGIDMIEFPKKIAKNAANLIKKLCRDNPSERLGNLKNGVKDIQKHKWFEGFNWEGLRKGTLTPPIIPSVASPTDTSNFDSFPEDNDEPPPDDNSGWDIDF
Active and inactive are the calls of the source.
Field 'call' accepts t for active, f for inactive

These recorded examples may help you get a feel for the data.
Molecule	Qualitative label
N#CC1(c2ccc(NC(=O)c3cccnc3NCc3ccncc3)cc2)CCCC1	f
Cn1ncc(Cl)c1-c1cc(C(=O)N[C@H](CN)Cc2ccc(F)c(F)c2)oc1Cl	f

Lookup: Per the records of this test, what outcome belongs to C[C@H]1CNCCCN1S(=O)(=O)c1cccc2cncc(F)c12 ?
Found: f

Lookup: Per the records of this test, what outcome belongs to C[C@@H](Oc1cc(C(=O)Nc2ccc(C(=O)N3CCN(C)CC3)cc2)nnc1N)c1c(Cl)ccc(F)c1Cl ?
Found: f

Lookup: Per the records of this test, what outcome belongs to COc1cc2c(Nc3ccc(Cl)c(Cl)c3F)ncnc2cc1OC[C@@H]1C[C@@H]2CN(C)C[C@@H]2C1 ?
Found: f

Lookup: Per the records of this test, what outcome belongs to CO[C@H]1C[C@@H]2CC[C@@H](C)[C@@](O)(O2)C(=O)C(=O)N2CCCC[C@H]2C(=O)O[C@H]([C@H](C)C[C@@H]2CC[C@@H](O)[C@H](OC)C2)CC(=O)[C@H](C)/C=C(\C)[C@@H](O)[C@@H](OC)C(=O)[C@H](C)C[C@H](C)/C=C/C=C/C=C/1C ?
Found: f

Lookup: Per the records of this test, what outcome belongs to COc1ncc(-c2ccc3nccc(-c4ccnnc4)c3c2)cc1NS(=O)(=O)c1ccc(F)cc1F ?
Found: f

---

molecular target: Cyclin-G-associated kinase (Homo sapiens); further: in the data inactive means no Kd found up to 30 µM
Sequence (O14976 whole entry): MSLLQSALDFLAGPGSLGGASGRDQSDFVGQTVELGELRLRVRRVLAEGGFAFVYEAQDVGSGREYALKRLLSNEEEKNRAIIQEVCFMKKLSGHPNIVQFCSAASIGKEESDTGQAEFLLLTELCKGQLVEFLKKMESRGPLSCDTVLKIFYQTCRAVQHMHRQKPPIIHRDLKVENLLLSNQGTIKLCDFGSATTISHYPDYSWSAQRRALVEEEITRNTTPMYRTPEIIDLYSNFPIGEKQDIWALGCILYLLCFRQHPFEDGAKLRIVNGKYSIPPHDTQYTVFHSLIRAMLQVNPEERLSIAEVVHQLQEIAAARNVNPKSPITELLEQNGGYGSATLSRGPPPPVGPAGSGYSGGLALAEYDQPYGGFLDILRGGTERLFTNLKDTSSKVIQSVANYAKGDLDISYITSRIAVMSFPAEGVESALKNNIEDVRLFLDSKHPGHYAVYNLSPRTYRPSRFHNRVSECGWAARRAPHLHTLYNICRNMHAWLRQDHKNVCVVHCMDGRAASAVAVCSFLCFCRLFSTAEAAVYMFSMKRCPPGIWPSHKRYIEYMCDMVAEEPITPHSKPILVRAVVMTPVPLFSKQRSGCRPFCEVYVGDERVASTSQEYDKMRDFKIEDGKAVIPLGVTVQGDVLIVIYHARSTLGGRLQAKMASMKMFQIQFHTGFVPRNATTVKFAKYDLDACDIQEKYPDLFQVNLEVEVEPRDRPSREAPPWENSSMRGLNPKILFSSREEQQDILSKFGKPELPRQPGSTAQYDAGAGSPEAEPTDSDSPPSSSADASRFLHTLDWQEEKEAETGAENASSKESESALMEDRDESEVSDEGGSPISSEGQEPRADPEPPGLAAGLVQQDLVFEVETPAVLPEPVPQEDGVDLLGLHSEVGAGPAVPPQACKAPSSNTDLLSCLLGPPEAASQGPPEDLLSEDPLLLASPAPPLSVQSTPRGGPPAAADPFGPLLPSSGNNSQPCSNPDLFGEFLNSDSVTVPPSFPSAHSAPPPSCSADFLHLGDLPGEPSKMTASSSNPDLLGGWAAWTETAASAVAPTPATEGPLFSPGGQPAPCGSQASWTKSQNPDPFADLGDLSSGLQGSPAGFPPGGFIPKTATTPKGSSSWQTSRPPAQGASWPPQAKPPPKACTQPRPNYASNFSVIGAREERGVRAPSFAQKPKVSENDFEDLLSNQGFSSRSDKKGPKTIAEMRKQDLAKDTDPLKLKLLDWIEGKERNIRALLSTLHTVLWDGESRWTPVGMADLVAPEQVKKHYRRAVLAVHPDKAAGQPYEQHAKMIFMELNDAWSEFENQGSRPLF
Calls of active or inactive are those of the source.
Field 'call' accepts active, inactive

These recorded examples may help you get a feel for the data.
In [3]: df
Out[3]:
                                 smiles_str  qualitative_label
0  Cc1cccc(-c2nn3c(c2-c2ccnc4ccc(C(N)=O)cc24)CCC3)n1             active
1  CC(=O)NCC(=O)N1[C@@H]2CC[C@H]1c1ccc(Nc3ncc(C(F)(F)F)c(NC4CCC4)n3)cc12             active

Okay, next one:
Lookup: Per the records of this test, what outcome belongs to NC(=O)c1c(OCc2c(F)cc(Br)cc2F)nsc1NC(=O)NCCCCN1CCCC1 ?
Found: inactive

---

molecular target: Aurora kinase B (Homo sapiens); further: in the data inactive means no Kd found up to 30 µM
Sequence (Q96GD4 whole entry): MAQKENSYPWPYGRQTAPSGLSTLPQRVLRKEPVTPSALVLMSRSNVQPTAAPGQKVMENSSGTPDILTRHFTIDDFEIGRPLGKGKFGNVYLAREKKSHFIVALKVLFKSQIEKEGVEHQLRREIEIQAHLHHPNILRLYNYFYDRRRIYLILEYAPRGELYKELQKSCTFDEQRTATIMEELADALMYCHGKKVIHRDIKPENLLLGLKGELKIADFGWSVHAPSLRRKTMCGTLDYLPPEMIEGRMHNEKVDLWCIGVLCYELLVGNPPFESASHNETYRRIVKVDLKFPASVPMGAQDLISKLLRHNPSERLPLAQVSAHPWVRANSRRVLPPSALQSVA
Where a name gives a salt, the structure may show the parent alone. Active and inactive are the calls of the source.
Field 'call' accepts t (active), f (inactive)

Lookup: Per the records of this test, what outcome belongs to Cc1nc(NC(=O)N2CCC[C@H]2C(N)=O)sc1-c1ccnc(C(C)(C)C(F)(F)F)c1 [ALPELISIB] ?
Found: f

Lookup: Per the records of this test, what outcome belongs to CCS(=O)(=O)N1CCN(c2ccc(Nc3ncc(C(N)=O)c(NC4CC4)n3)cc2)CC1 [Cerdulatinib Hydrochloride] ?
Found: t

Lookup: Per the records of this test, what outcome belongs to FC(F)(F)c1ccc(/C=C/c2nc(COc3ccc(CCCCn4ccnn4)cc3)co2)cc1 [MUBRITINIB] ?
Found: f

---

target: cAMP-dependent protein kinase catalytic subunit beta (Homo sapiens); further: in the data inactive means no Kd found up to 30 µM
Counter-ions that a name gives are not always drawn. Active and inactive are the calls of the source.
Quantity kind: Kd

Here is how some compounds turned out for Kd.
In [3]: df
Out[3]:
                                   compound  quantity_kind       readout_value
0  Cc1cc(Nc2ncc(Cl)c(Nc3ccccc3S(=O)(=O)C(C)C)n2)c(OC(C)C)cc1C1CCNCC1             Kd  > 30 µM (inactive)
1  CCS(=O)(=O)N1CCN(c2ccc(Nc3ncc(C(N)=O)c(NC4CC4)n3)cc2)CC1 [Cerdulatinib Hydrochloride]             Kd  > 30 µM (inactive)

Lookup: Consider the compound shown here: O=C(Nc1cc(C(F)(F)F)cc(C(F)(F)F)c1)c1cc(Cl)ccc1O What is its recorded Kd?
Found: > 30 µM (inactive)
